Hey, just so you know, these numbers are from patent US20240285571A1.

tested on: S. aureus (MRSA, MSSA); experiment: MIC of baseline clinical isolates (Example 8); assay type: cell-based; conditions: Staphylococcus aureus, MRSA baseline isolates (N′ = 4), central laboratory, mITT
Readout type: n (% resistant)

Guide cases for n (% resistant), answers given:
Cc1onc(-c2ccccc2)c1C(=O)N[C@@H]1C(=O)N2[C@@H]1SC(C)(C)[C@@H]2C(=O)O	4 (100.0) n (%)
C[C@H]1COc2c(N3CCN(C)CC3)c(F)cc3c(=O)c(C(=O)O)cn1c23	4 (100.0) n (%)
CC1(C)S[C@@H]2[C@H](NC(=O)[C@H](N)c3ccc(O)cc3)C(=O)N2[C@H]1C(=O)O.O=C(O)[C@H]1/C(=C/CO)O[C@@H]2CC(=O)N21	0 (0.0) n (%)
CN[C@H](CC(C)C)C(=O)N[C@H]1C(=O)N[C@@H](CC(N)=O)C(=O)N[C@H]2C(=O)N[C@H]3C(=O)N[C@H](C(=O)N[C@H](C(=O)O)c4cc(O)cc(O)c4-c4cc3ccc4O)[C@H](O)c3ccc(c(Cl)c3)Oc3cc2cc(c3O[C@@H]2O[C@H](CO)[C@@H](O)[C@H](O)[C@H]2O[C@H]2C[C@](C)(N)[C@H](O)[C@H](C)O2)Oc2ccc(cc2Cl)[C@H]1O	0 (0.0) n (%)

*Q* Please look up its n (% resistant): "COc1cc(Cc2cnc(N)nc2N)cc(OC)c1OC.Cc1cc(NS(=O)(=O)c2ccc(N)cc2)no1"
*A* 1 (25.0) n (%)

*Q* Requested field: n (% resistant). Item: "CC1(C)S[C@@H]2[C@H](NC(=O)[C@H](N)c3ccccc3)C(=O)N2[C@H]1C(=O)O"
*A* 0 (0.0) n (%)

*Q* Need n (% resistant) of "CN(C)c1ccc(O)c2c1C[C@H]1C[C@H]3[C@H](N(C)C)C(O)=C(C(N)=O)C(=O)[C@@]3(O)C(O)=C1C2=O" , thanks.
*A* 0 (0.0) n (%)

*Q* Could you share which n (% resistant) value was measured for "CCC[C@@H]1C[C@@H](C(=O)N[C@@H]([C@H]2O[C@H](SC)[C@H](O)[C@@H](O)[C@H]2O)[C@H](C)Cl)N(C)C1" ?
*A* 1 (25.0) n (%)

*Q* Could you share which n (% resistant) value was measured for "CC(=O)NC[C@H]1CN(c2ccc(N3CCOCC3)c(F)c2)C(=O)O1" ?
*A* 0 (0.0) n (%)

====

test system: relevant ATCC QC organisms; experiment: Broth microdilution MIC, QC (Example 6); assay type: cell-based; details: Escherichia coli, ATCC35218; E. coli ATCC 35218; read-out: MIC
Readout type: MIC (µg/mL)
Write down the numeric answer in µg/mL and omit the unit.

NCC[C@H](O)C(=O)N[C@@H]1C[C@H](N)[C@@H](O[C@H]2O[C@H](CN)[C@@H](O)[C@H](O)[C@H]2O)[C@H](O)[C@H]1O[C@H]1O[C@H](CO)[C@@H](O)[C@H](N)[C@H]1O [Amikacin]	1

*Q* Bench note: what MIC did CC(C)(O/N=C(\C(=O)N[C@@H]1C(=O)N2C(C(=O)[O-])=C(C[n+]3ccccc3)CS[C@H]12)c1csc(N)n1)C(=O)O [Ceftazidime] show?
*A* 0.12
